- Tested on: HBV viral production in AD38 cells
- MEASUREMENT NOTES: Viral load production in AD38 cells by quantitative PCR of the HBV core sequence in supernatant
- Format: cell-based
- PARTICULARS: Hepatitis B virus, 144 h; 10 μM compound, 6 days at 37° C., viral load in supernatant compared against DMSO control wells; read-out: AD38 Viral Load (CpAM/DMSO %) at 10 μM
OBSERVED PROPERTY: activity at 10 µM

Answered cases to consult:
O=C(Nc1cncnc1)c1ccc2c(c1)NC(=O)c1cc(F)ccc1S2 [Compound 1328] :: 54%
O=C(Nc1ccccc1)c1ccc2c(c1)NC(=O)c1ccccc1S2 [Compound 1223] :: 2%
CCc1cccc(CNC(=O)c2ccc3c(c2)NC(=O)c2ccccc2S3)c1 [Compound 1283] :: 1%
O=C(NCc1cccnc1)c1ccc2c(c1)NC(=O)c1ccccc1C2 [Compound 1591] :: 13%
O=C1Nc2c(cc(F)c(C(=O)NCCc3ccccn3)c2F)Sc2ccccc21 [Compound 1519] :: 73%

Look at each compound and report its activity at 10 µM.
1. O=C(Nc1ccncc1)c1ccc2c(c1)NC(=O)c1cc(F)ccc1S2 [Compound 1330]
2. O=C(NCCc1ccc(OC(F)(F)F)cc1)c1ccc2c(c1)NC(=O)c1ccccc1S2 [Compound 1182]
3. O=C(NCCc1cnc(-c2ccccc2)nc1)c1ccc2c(c1)NC(=O)c1cc(F)ccc1S2 [Compound 1343]

Out:
1. 41%
2. 13%
3. 8%
